target: EHMT1 (Homo sapiens); experiment: EHMT1 PEP (EHMT1 peptide enzyme assay); format: biochemical; conditions: peptide substrate enzyme assay
Sequence (Q9H9B1 whole entry): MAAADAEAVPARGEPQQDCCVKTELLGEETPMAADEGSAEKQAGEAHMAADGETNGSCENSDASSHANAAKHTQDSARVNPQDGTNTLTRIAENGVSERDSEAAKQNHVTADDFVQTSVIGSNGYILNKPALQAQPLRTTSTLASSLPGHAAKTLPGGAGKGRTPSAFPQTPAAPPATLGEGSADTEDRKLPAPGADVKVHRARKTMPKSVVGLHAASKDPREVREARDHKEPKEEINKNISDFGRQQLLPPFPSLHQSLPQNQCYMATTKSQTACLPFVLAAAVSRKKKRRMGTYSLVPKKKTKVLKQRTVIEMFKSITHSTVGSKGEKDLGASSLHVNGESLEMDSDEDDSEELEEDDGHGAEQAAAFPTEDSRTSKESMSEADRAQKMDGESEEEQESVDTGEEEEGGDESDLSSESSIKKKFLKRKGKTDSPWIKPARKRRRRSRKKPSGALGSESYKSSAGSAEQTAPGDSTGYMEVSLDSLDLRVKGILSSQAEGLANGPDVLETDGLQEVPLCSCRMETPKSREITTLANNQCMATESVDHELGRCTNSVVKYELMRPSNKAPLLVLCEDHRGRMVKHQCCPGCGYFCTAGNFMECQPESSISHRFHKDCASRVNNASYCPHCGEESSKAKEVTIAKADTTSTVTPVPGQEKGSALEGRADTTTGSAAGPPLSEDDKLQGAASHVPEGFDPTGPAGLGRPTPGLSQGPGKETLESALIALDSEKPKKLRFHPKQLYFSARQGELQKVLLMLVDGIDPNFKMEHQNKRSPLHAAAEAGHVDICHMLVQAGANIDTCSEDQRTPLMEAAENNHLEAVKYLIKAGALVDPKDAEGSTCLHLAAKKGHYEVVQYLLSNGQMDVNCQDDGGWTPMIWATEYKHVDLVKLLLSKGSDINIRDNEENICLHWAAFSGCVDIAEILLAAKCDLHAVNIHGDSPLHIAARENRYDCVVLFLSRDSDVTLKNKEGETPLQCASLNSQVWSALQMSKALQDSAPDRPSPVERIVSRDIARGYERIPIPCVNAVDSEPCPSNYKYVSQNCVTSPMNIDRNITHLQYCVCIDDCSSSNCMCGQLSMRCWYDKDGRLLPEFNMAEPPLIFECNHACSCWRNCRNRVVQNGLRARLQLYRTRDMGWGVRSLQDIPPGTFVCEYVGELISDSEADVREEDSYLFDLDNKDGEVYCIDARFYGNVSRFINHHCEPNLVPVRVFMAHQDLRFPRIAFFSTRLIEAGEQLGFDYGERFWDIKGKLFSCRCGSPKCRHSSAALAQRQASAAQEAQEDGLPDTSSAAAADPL
ASSAY_READOUT: IC50

// lookup IC50 for CNCc1cnn(-c2cc(Nc3nc(C)cc(NC)n3)ccc2C)c1
< 0.1 µM

Next compound: CNC1=Nc2cc(-n3cc([C@H]4CCCN4)nn3)c(OC)cc2C12CCC2
< 0.1 µM

What do you get for CNc1cc(C)nc(Nc2ccc(OC)c(-n3cc(CN(C)C)nn3)c2)n1 ?
< 0.1 µM

Same for CNc1cc(C)nc(Nc2ccc(OC)c(-c3cc4cnccn4n3)c2)n1
1 to 10 µM

Another compound to look at: CNc1cc(C)nc(Nc2ccc(OC)c(-n3ncc4c3CCCC4)c2)n1
1 to 10 µM

Would you kindly repeat that for CNC(=O)c1cnn(-c2cc(Nc3nc(C)cc(NC)n3)ccc2OC)c1 ?
1 to 10 µM

Moving on to CNc1cc(C)nc(Nc2ccc(OC)c(-c3cc4[nH]ccc4c(C#N)n3)c2)n1
< 0.1 µM

Now try CNc1cc(C)nc(Nc2ccc(OC)c(-n3cc(CN4CCC4)nn3)c2)n1 .
0.1 to 1 µM
